// read-out IC50, gathered for 72 kDa type IV collagenase (Homo sapiens, UniProt P08253) from published studies

C[C@@H](NS(=O)(=O)N1CCN(c2ccc(C#Cc3nc(-c4cccc(OCc5ccccc5)c4)cs3)cc2)CC1)C(=O)O: 1000 to 10000 nM
O=CON=C1CCC(=CC(CS(=O)(=O)c2ccc(OCc3ccc4ccccc4n3)cc2)N(O)C=O)CC1 (stereo not drawn): 4500 nM
Cc1ccc2nnn(C[C@@H]3CC[C@H](C(=O)c4ccc(OCc5cccc(OC(F)(F)F)c5)cc4)[C@H]3C(=O)O)c(=O)c2c1 (racemic): 1100 nM
O=C(NO)C(O)(CO)CS(=O)(=O)c1ccc(Sc2ccccc2)cc1 (stereo not drawn): 2.3 nM
O=C(CC(CCn1nnc2ccccc2c1=O)C(=O)O)c1coc2cc(OCCC3CCCC3)ccc12 (racemic): 390 nM

I need IC50 for every entry listed below, if you could help.
1. C[C@@H](NS(=O)(=O)c1ccc(-c2ccc(NC(=O)c3ccc(OC(F)(F)F)cc3)cc2)cc1)C(=O)O
2. Cc1cc(COc2ccc(S(=O)(=O)CC(N(O)C=O)C3(C)CCOCC3)cc2)c2ccccc2n1 (stereo not drawn)
3. C[C@H](Cc1ccc(C(F)(F)F)cc1)C(=O)NC[C@@]1(C2CC2)NC(=O)NC1=O

A:
1: 105 nM; 2: 60000 nM; 3: 1750 nM

====

Header: IC50 / 72 kDa type IV collagenase (Homo sapiens, UniProt P08253) / multiple publications

// below: answered compounds
COc1ccc2cc(C#Cc3ccc(-c4ccc(S(=O)(=O)N[C@H](CC(C)C)C(=O)O)cc4)cc3)ccc2c1: > 10 µM
CC1c2ccc([N+]#N)c(O)c2C(=O)C2=C(O)C3(O)C(=O)C(C(N)=O)=C(O)C(N(C)C)C3C(O)C21 (stereo not drawn): > 1000 µM

# input for lookup
Looking up CN(C)c1cccc2c(S(=O)(=O)N3CCN(S(=O)(=O)c4cc(F)c(Oc5ccc(Cl)cc5)c(F)c4)[C@@H](C(=O)NO)C3)cccc12 , I found its IC50 recorded as < 0.05 µM

====

// read-out IC50, gathered for 72 kDa type IV collagenase (Homo sapiens) from published studies

# count of solved cases: 2
Cc1cccn(CC2(c3ccc(OCc4ccccc4)cc3)NC(=O)NC2=O)c1=O (stereo not drawn): > 10000 nM
CC(C)[C@@H](NS(=O)(=O)N1CCN(c2ccc(C#Cc3ccc(OCCOC(C)(C)C)c(C(=O)NCC#N)c3)cc2)CC1)C(=O)O: 1000 to 10000 nM

Okay, next one:
Reported IC50 of O=C(NO)[C@H]1CNCCN1S(=O)(=O)c1cc(F)c(Oc2ccc(F)cc2)c(F)c1 : 50 to 1000 nM

====

This section presents pIC50 values reported for 72 kDa type IV collagenase (Homo sapiens) in the literature.
Give bare numbers, as −log10 of the molar value.

Sample records with pIC50:
O=C(O)[C@@H]1[C@@H](Cn2nnc3ccc(C(F)(F)F)cc3c2=O)CC[C@H]1C(=O)c1ccc(OCCC2CCOCC2)cc1 (single isomer, unassigned): 6.29
CC(C)CC(=O)Nc1ccc(S(=O)(=O)CC(C)(O)C(=O)NO)cc1 (centres unmarked): 6.40
CCCCCOc1ccc(C(=O)[C@H]2CC[C@@H](Cn3nnc4ccc(C)cc4c3=O)[C@@H]2C(=O)O)cc1 (racemic): 6.77
CC1c2ccc([N+](=O)[O-])c(O)c2C(=O)C2=C(O)C3(O)C(=O)C(C(N)=O)=C(O)CC3C(O)C21 (centres unmarked): 3.60
CCc1ccc(-c2nnn(-c3ccc(S(=O)(=O)N[C@@H](C(=O)O)C(C)C)cc3)n2)cc1: 8.45
O=C(CC(CCn1nnc2ccccc2c1=O)C(=O)O)c1noc2cc(OCc3ccc(F)cc3)ccc12 (racemic): 6.49

I'm hoping you can list pIC50 for every compound here, please.
1. C[C@@H](NS(=O)(=O)c1ccc(-c2noc(-c3ccc(Cl)cc3)n2)cc1)C(=O)O
2. CC(=O)N(C)[C@@H](CS(=O)(=O)c1ccc(Oc2ccccc2)cc1)C(=O)NO

A:
1: 7.73; 2: 9.70
